The reported measurements were obtained from patent US6229016A.

Data export: log10(GI50) values recorded with HCT-116 colon cancer cell line.
Friendly reminder: values = log10 of GI50, unit µM.

# example entries with known answers
COc1ccccc1-c1cc(=O)c2c(C)cc(C)nc2[nH]1 :: 1.87
Cc1ccc2c(=O)cc(-c3cccc(F)c3)[nH]c2n1 :: -1.55
COc1ccccc1-c1cc(=O)c2c(C)ccnc2[nH]1 :: 0.88
Cc1cccc(-c2cc(=O)c3cccnc3[nH]2)c1 :: -1.65
Cc1cnc2c(c1)C(=O)CC(c1ccc(Cl)cc1)=N2 :: 0.45

Response field log10(GI50) (HCT-116 colon cancer cell line) for item O=C1CC(c2ccc(F)cc2)=Nc2ncccc21 : 1.63

Record O=C1CC(c2ccc(Cl)cc2)=Nc2ncccc21 has HCT-116 colon cancer cell line log10(GI50) equal to 1.51

Fill in: HCT-116 colon cancer cell line log10(GI50) for Cc1ccc2c(n1)N=C(c1ccc(Cl)cc1)CC2=O = 0.52

Item Cc1ccnc2c1C(=O)CC(c1ccc(F)cc1)=N2 was tested on HCT-116 colon cancer cell line; the reported log10(GI50) is 1.21

###

# Tested on: HCT-116 colon cancer cell line
observation type: GI50 (nM)
Write it as a number; the unit nM goes unstated.

// assay HCT-116 colon cancer cell line, entry COc1ccc(C2=Nc3nc(C)cc(C)c3C(=O)C2)cc1 , GI50 value = 36300

So the reported GI50 for COc1ccc(-c2cc(=O)c3cccnc3[nH]2)cc1 , on HCT-116 colon cancer cell line, turned out to be 17800

Form field, GI50 with HCT-116 colon cancer cell line, item Cc1cnc2[nH]c(-c3cccc(Cl)c3)cc(=O)c2c1 : 30.2

For the compound Cc1cc(C)c2c(n1)N=C(c1ccc(F)cc1)CC2=O , the measured GI50 on HCT-116 colon cancer cell line was 50100

Hey, HCT-116 colon cancer cell line data for Cc1ccnc2c1C(=O)CC(c1ccc3ccccc3c1)=N2 : GI50 came out at 427

Param item: COc1cccc(-c2cc(=O)c3cc(Cl)cnc3[nH]2)c1 ; param system: HCT-116 colon cancer cell line; output GI50: 120

###

# Tested on: SK-MEL-5 melanoma cell line
The label 1 (yes) is reserved for GI50 strictly under 3 µM; 0 (no) covers values equal to or above it.

COc1ccccc1-c1cc(=O)c2c(C)ccnc2[nH]1 [Compound 40] :: 0 (no)
O=C1CC(c2ccc(F)cc2)=Nc2ncc(Cl)cc21 [Compound 61] :: 0 (no)
Cc1cc(C)c2c(=O)cc(-c3cccc(F)c3)[nH]c2n1 [31'] :: 1 (yes)
COc1cccc(-c2cc(=O)c3ccc(C)nc3[nH]2)c1 [Compound 47] :: 1 (yes)
COc1ccc(C2=Nc3nc(C)ccc3C(=O)C2)cc1 [Compound 54] :: 0 (no)
Cc1ccnc2c1C(=O)CC(c1ccc(Cl)cc1)=N2 [Compound 63] :: 0 (no)
Cc1ccc2c(=O)cc(-c3cccc(Cl)c3)[nH]c2n1 [35'] :: 1 (yes)
Cc1cccc(C2=Nc3nc(C)cc(C)c3C(=O)C2)c1 [Compound 41] :: 0 (no)

Task item: Given the entry COc1ccc(C2=Nc3ncc(C)cc3C(=O)C2)cc1 [Compound 53] , would its reported GI50 be below 3 µM?
Reply: 0 (no)

Task item: Does Cc1ccc2c(n1)N=C(c1cccc3ccccc13)CC2=O [Compound 45] have GI50 strictly under 3 µM?
Reply: 1 (yes)
